Recorded Kd, one value per entry.
Test Target: T1, Recombinant human Dkk-1 (R&D Systems cat no. 1096-DK/CF), 10xHis tag at the C terminal (human, UniProt O94907 32-266)
T1 construct: the actual N-terminus of the purified protein is marked in bold italic after residue 30, but the mark is an image lost in the text; also called rhuDkk-1; hDkk-1
T1 sequence: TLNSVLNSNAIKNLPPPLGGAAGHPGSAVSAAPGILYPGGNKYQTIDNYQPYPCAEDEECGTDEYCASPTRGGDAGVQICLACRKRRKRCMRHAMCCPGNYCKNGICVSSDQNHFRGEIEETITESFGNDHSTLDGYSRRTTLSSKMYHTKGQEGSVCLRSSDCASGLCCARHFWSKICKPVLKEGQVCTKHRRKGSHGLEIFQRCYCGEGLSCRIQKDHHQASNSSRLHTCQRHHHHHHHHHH
Procedure Details: theoretical: koff / estimated kon 1e6 1/Ms (SPR screening 37C)

Binder: L3.4H5 (Fab, V domains shown, tested as Fab (E. coli lysate, screening mode); human kappa CL and IgG2 CH1 not included here) VH: EVQLVESGGGLVQPGGSLRLSCAASGFTFSSYAISWVRQAPGKGLEWVASVSGWGDTYYPDSVKGRFTISRDNAKNSLYLQMNSLRAEDTAVYYCASSLDNYAFDYWGQGTTVTVSS VL: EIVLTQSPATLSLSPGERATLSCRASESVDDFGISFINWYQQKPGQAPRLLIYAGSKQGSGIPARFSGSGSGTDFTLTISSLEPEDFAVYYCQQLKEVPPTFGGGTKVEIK
Display Unit: nM
Kd: 0.808
//
Binder: L3.1A3 (Fab, V domains shown, tested as Fab (E. coli lysate, screening mode); human kappa CL and IgG2 CH1 not included here) VH: EVQLVESGGGLVQPGGSLRLSCAASGFTFSSYAISWVRQAPGKGLEWVASVSGWFHTYYPDSVKGRFTISRDNAKNSLYLQMNSLRAEDTAVYYCATSLRNYAFDYWGQGTTVTVSS VL: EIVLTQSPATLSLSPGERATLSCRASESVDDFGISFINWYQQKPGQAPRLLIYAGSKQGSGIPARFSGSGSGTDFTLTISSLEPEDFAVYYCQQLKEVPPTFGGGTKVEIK
Display Unit: nM
Kd: 0.184
